assay: NCI Yeast Anticancer Drug Screen. Data for the sgs1 mgt1 strain (AID 161);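 also: 0% = growth of cultures given vehicle only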; conditions: S. cerevisiae sgs1 mgt1 strain, at 50.0 µM
About 79,000 compounds went through this panel and 15% of them were active in at least one assay; those are over-represented in the sample as a whole. Calls of active or inactive are those of the source. Rule as the data show it: active = growth inhibition above about 70%; inactive = the rest.
Choose the fitting class; nothing outside Y for active, N for inactive is accepted.

Test call for this compound, please: O=C(Nc1ccccc1)c1ccc2ccccc2n1 N

Another compound to look at: Cc1cc2nc(-c3cc4cc(Cl)cc(Cl)c4oc3=O)[nH]c2cc1C N

Another compound to look at: CC(=O)OCC1(C)C(O)CCC2(C)C1CCC1CC3CC12CCC3(O)CO (stereo not drawn) N

Another compound to look at: CN(C)C(=O)C1CCC(=O)N1 (stereo not drawn) N

Another compound to look at: Brc1cccc(C2SCc3nc4ccccc4n32)c1 (stereo not drawn) N

###

test: NCI Yeast Anticancer Drug Screen. Data for the bub3 strain (AID 167); conditions: S. cerevisiae bub3 mutant strain, at 50.0 µM, hits give high values
Compounds without any hit were thinned out: in the full panel of roughly 79,000, 15% have a hit.
MEASUREMENT_KIND: growth inhibition (%)
# value in %; strip the unit string

[[record]]
compound = "O=C(Nc1ccsc1)c1ccccc1"
result_unit = "%"
endpoint_result = -27.4


growth inhibition lookup needed for Cc1ccccc1NC(=O)CC#N , thanks. -0.7

Another compound to look at: C=C(Cl)COc1ccc(-c2ccccc2)cc1 -8.55

###

Experiment: NCI Yeast Anticancer Drug Screen. Data for the rad50 strain (AID 155);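 also: 0% = growth of vehicle-only cultures of the same strain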
Settings: S. cerevisiae rad50 strain growth inhibition; at 50.0 µM; hits give high values
Protocol: Growth inhibition of yeast strains with defined genetic alterations is measured as a screen for potential anti-cancer activity. Selected strains with alterations in DNA damage repair or cell cycle control were exposed to compounds and growth inhibition was measured relative to vehicle treated controls. The strain used in this assay is rad50
Compounds without any hit were thinned out: in the full panel of roughly 79,000, 15% have a hit.
Let's look at some compounds and their measured growth inhibition.
# value in %; strip the unit string

Field: example entries. Status: answers known.
[[record]]
compound = "CC(=O)OCC/C=C\\CCCOC(C)=O"
endpoint_result = 5.55

[[record]]
compound = "Cc1ccccc1NC(=O)CSC#N"
endpoint_result = 10.2

[[record]]
compound = "C=CC(C)n1cnc2c1c(=O)n(C)c(=O)n2C (configuration not stated)"
endpoint_result = -5.1

[[record]]
compound = "O=[N+]([O-])c1ccc(N=Nc2c(O)[nH]c3ccc(Br)cc23)c([N+](=O)[O-])c1"
endpoint_result = 9.75

[[record]]
compound = "CCC1(CCC#N)CCC(N)=CC1=O (configuration not stated)"
endpoint_result = 21.9


growth inhibition lookup needed for COC(=O)C(CCc1ccc([N+](=O)[O-])cc1)(CCc1ccc([N+](=O)[O-])cc1)C(C)=O , thanks. 5.9

Another compound to look at: NC(=O)NC(c1ccc(O)cc1)c1cc2c(cc1O)OCO2 (configuration not stated) -4

###

Let's look at some compounds and their measured growth inhibition.
test: NCI Yeast Anticancer Drug Screen. Data for the bub3 strain (AID 167); conditions: S. cerevisiae bub3 mutant strain, at 50.0 µM, hits give high values
The panel holds about 79,000 compounds, 15% with a hit somewhere; the sample as a whole holds those more often.
# value in %; strip the unit string

Field: example entries. Status: answers known.
[[record]]
compound = "c1cc(-c2cc(-c3cc(-c4ccncc4)n[nH]3)[nH]n2)ccn1"
endpoint_result = -13.8

[[record]]
compound = "CCOC(=O)Nc1c2ccccc2c(NC(=O)OCC)c2cc(Cl)ccc12"
endpoint_result = 2.85

[[record]]
compound = "NC(=O)Cc1[nH]ccc1C(=O)O"
endpoint_result = -4.15

[[record]]
compound = "Oc1ccc(-c2ccc(Br)cc2)cc1"
endpoint_result = -31.8


growth inhibition lookup needed for CCCC(C)OC(=O)CC(c1ccccc1)N1CCCCC1 (centres undefined) , thanks. 40.2

Another compound to look at: Nc1ncc2c(n1)-c1ccccc1OC2N1CCOCC1 (centres undefined) -22.6

Another compound to look at: COc1ccc(C2OC3=Nc4ccccc4NC3C2=O)cc1OC (centres undefined) 15.3

Another compound to look at: Nc1nc(-c2ccccc2)nc2nc[nH]c12 0.85

###

experiment: NCI Yeast Anticancer Drug Screen. Data for the mec2-1 strain (AID 157); conditions: S. cerevisiae mec2-1 strain, at 50.0 µM, hits give high values
About 79,000 compounds went through this panel and 15% of them were active in at least one assay; those are over-represented in the sample as a whole.
Let's look at some compounds and their measured growth inhibition.
# value in %; strip the unit string

[[record]]
compound = "CCC(OC(C)=O)c1ccccc1 (centres undefined)"
result_unit = "%"
endpoint_result = 17.2

[[record]]
compound = "CC(C)(C)C1CCC2c3c([nH]c4ccccc34)C3C(=O)N(c4ccc(C#N)cc4)C(=O)C3C2C1 (centres undefined)"
result_unit = "%"
endpoint_result = 50.2

[[record]]
compound = "NC(CCC(N)C(=O)c1ccccc1)C(=O)c1ccccc1 (centres undefined)"
result_unit = "%"
endpoint_result = -7.75

[[record]]
compound = "Clc1ccc(/C=C2\\c3ccccc3-c3nc4ccccc4nc32)cc1"
result_unit = "%"
endpoint_result = -8.05

[[record]]
compound = "CC1(C)OC2OC(COC(=O)c3ccccc3)C(N3C(=O)c4ccccc4C3=O)C2O1 (centres undefined)"
result_unit = "%"
endpoint_result = 9

[[record]]
compound = "CC(C)(C)C1CCCC(=O)C1 (centres undefined)"
result_unit = "%"
endpoint_result = -5.15

[[record]]
compound = "OCCSC(SCCO)=C(SCCO)SCCO"
result_unit = "%"
endpoint_result = -15.7

[[record]]
compound = "CN(C)C(=O)Nc1ccc2c(c1)OCO2"
result_unit = "%"
endpoint_result = 8.6

[[record]]
compound = "CCCC(=O)NC(Nc1cc(C)ccn1)(C(=O)OCC)C(F)(F)F (centres undefined)"
result_unit = "%"
endpoint_result = 8.5

[[record]]
compound = "O=[N+]([O-])c1ccc(N=Nc2c(O)[nH]c3ccc(Br)cc23)c([N+](=O)[O-])c1"
result_unit = "%"
endpoint_result = -21.2


growth inhibition lookup needed for Cc1cccc(C)c1NC(=O)C(=O)CC(=O)c1sc(Nc2c(C)cccc2C)nc1C , thanks. -10.9

###

experiment: NCI Yeast Anticancer Drug Screen. Data for the rad50 strain (AID 155);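 also: 0% = growth of vehicle-only cultures of the same strain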; details: S. cerevisiae rad50 strain growth inhibition; at 50.0 µM; hits give high values
Compounds without any hit were thinned out: in the full panel of roughly 79,000, 15% have a hit.
MEASUREMENT_KIND: growth inhibition (%)
# value in %; strip the unit string

Field: example entries. Status: answers known.
[[record]]
compound = "O=C1CN(CN2CCOCC2)C(=O)CN1CN1CCOCC1"
measurement_kind = "growth inhibition"
endpoint_result = 39.3

[[record]]
compound = "Cc1[nH]c(=O)[nH]c(=O)c1/C=C/C(=O)NC(CO)CS(=O)CS(C)=O (stereo not drawn)"
measurement_kind = "growth inhibition"
endpoint_result = 3.85

[[record]]
compound = "CCOC(=O)c1c[nH]c2cc(Cl)ccc2c1=O"
measurement_kind = "growth inhibition"
endpoint_result = 3.85

[[record]]
compound = "CO/N=C(\\C(=O)OC(=NC1CCCCC1)NC1CCCCC1)c1csc(NC(c2ccccc2)(c2ccccc2)c2ccccc2)n1"
measurement_kind = "growth inhibition"
endpoint_result = -5.15

[[record]]
compound = "Nc1ncnc2c1ncn2-c1ccccc1Cl"
measurement_kind = "growth inhibition"
endpoint_result = 4.6


growth inhibition lookup needed for COc1ccc(C2OC3=Nc4ccccc4NC3C2=O)cc1OC (stereo not drawn) , thanks. 11

Another compound to look at: Nc1nc2c(nnn2C2OC(CO)C(O)C2O)c(=O)[nH]1 (stereo not drawn) -4.6

Another compound to look at: CCOC1(C)Oc2cc3c(cc2C(c2cc(OC)c(OC)c(OC)c2)C1C)OCO3 (stereo not drawn) 12.4

Another compound to look at: CCc1cccc(C)c1NC(=O)C1=C(C)NC(C)=C(C(=O)Nc2c(C)cccc2CC)C1c1ccc([N+](=O)[O-])cc1 40.8

Another compound to look at: COC(=O)CCCCCN1C(=O)c2cccc([N+](=O)[O-])c2C1=O 20.6

Another compound to look at: CCCCC(CCc1ccccc1)C(=O)NCC (stereo not drawn) -5.1

Another compound to look at: Cc1ccc(S(=O)(=O)OC[C@H]2CC=CC[C@@H]2COS(=O)(=O)c2ccc(C)cc2)cc1 -18.6

Another compound to look at: BrCCC1(CCBr)CCCCC1 54

Another compound to look at: Nc1c(N=Nc2ccc(-c3ccc(N=Nc4ccc(O)c(C(=O)O)c4)cc3)cc2)cc(S(=O)(=O)O)c2ccccc12 91.5

Another compound to look at: Brc1ccc(N=C2NN=CC2(c2ccccc2)c2ccccc2)cc1 25.6

Another compound to look at: CCCCc1nc2c([nH]1)c(=O)n(C)c(=O)n2C 8.1

Another compound to look at: O=C(Nc1cccc([N+](=O)[O-])c1)C(=O)C(C(=O)c1ccccc1F)C1OC(=O)C2C=CC=CC21 (stereo not drawn) 5.5

Another compound to look at: CCc1cccc(CC)c1NC(=O)Nc1cc(Cl)ccc1C 1.8

Another compound to look at: CCOC(=O)c1ccc(=O)n2c1[nH]c1ccccc12 9.05

Another compound to look at: NC(Cc1ccc(O)cc1)C(=O)NCCS(=O)(=O)O (stereo not drawn) 1.5

Another compound to look at: CC1(O)C=CC(=O)C=C1 0.05
